Answer each item with its documented IC50.
tested on: HCT-116; experiment: Antiproliferative activity against human HCT-116 cells assessed as inhibition of cell proliferation incubated for 72 hrs by MTT assay; type: functional, cell-based; settings: HCT-116, 72 h
Just the number please, in µM, no unit attached.

Req: So what's the measured IC50 for this one? Cc1cccc(Cn2c(=O)oc3cc(-c4cnc5[nH]ccc5c4)ccc32)c1
Resp: 5.12

Req: Given the molecule O=c1oc2cc(-c3cnc4[nH]ccc4c3)ccc2n1Cc1ccc(F)cc1 , what is its reported IC50?
Resp: 5.99

Req: Given O=c1oc2cc(-c3c[nH]c4ncccc34)ccc2n1Cc1ccc(F)cc1 , state its recorded IC50.
Resp: 11.8

Req: Return reported IC50; argument: N#Cc1cc(-c2ccc3c(c2)oc(=O)n3Cc2ccc(F)cc2)cnc1N
Resp: 8.25
